Where do the numbers come from? From patent US8252793B2.

Molecular target: BK receptors in human ciliary muscle cells (h-CM) (Homo sapiens)
Construct: h-CM cells expressing BK receptors were seeded; endogenous in cells; host or cells: human ciliary muscle (h-CM) cells
Sequence (P30411 1-391): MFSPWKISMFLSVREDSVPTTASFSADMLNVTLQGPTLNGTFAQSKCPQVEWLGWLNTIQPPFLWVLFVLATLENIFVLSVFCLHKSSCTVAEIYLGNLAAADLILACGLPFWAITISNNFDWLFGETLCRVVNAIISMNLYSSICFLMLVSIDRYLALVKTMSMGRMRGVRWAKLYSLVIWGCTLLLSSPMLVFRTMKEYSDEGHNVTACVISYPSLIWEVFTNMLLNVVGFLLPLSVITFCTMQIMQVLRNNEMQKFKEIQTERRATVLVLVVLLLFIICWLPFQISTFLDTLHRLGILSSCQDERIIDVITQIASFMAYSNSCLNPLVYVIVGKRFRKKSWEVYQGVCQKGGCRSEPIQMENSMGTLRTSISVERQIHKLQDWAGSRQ
Assay: Functional assay measuring [Ca2+]i mobilization (FLIPR) in h-CM cells
Format: cell-based
Conditions: class symbols (in μM), read-out: CaM (EC50)
EC50 for assorted compounds

A selection of reference data follows.
compound	assayEndpoint	recordedMeasurement
COc1nc2c(OCc3c(Cl)ccc(N(C)C(=O)CNC(=O)C4CCN(C5CCNC5)C4)c3Cl)cccc2n1Cc1ccccn1 (stereo not shown)	EC50	< 0.1 µM
CNC(=O)c1ccc(CCC(=O)NCC(=O)N(C)c2ccc(C)c(COc3cccc4c3nc(OC)n4Cc3ccccn3)c2C)cc1	EC50	< 0.1 µM
CNCc1ccc(CCC(=O)NCC(=O)N(C)c2ccc(Cl)c(COc3cccc4c3nc(OC)n4Cc3ccccn3)c2Cl)cc1	EC50	< 0.1 µM

Let us examine a further case.
Briefly, EC50 measured for COc1nc2c(OCc3c(Cl)ccc(N(C)C(=O)CNC(=O)CCN4CCNCC4)c3Cl)cccc2n1Cc1ccccn1 : > 1 µM

* * *

molecular target: recombinant human bradykinin B2 receptor (Homo sapiens); construct: expressed in transfected cells; host or cells: Chinese hamster ovary (CHO) cells, membrane homogenates; experiment: [3H]-BK competition radioligand binding to human cloned B2 receptor (CHO cell membranes); conditions: 0.2 nM [3H]-bradykinin, CHO membranes, 60 min 23° C.; mean ± SEM or single value; Ki from IC50 by Cheng-Prusoff; read-out: [3H]-BK Binding to Human Cloned B2 Receptor (Ki)
assayEndpoint: Ki
State the value, then name its unit.

A selection of reference data follows.
compound	target	recordedMeasurement
CNC(=O)c1ccc(CCC(=O)NCC(=O)N(C)c2ccc(Cl)c(COc3cccc4c3nc(OC)n4Cc3ccccn3)c2Cl)cn1 [Compound 64]	recombinant human bradykinin B2 receptor (Homo sapiens)	40.3 nM
COc1nc2c(OCc3c(C)ccc(N(C)C(=O)CNC(=O)CCc4cnc5[nH]c(=O)oc5c4)c3C)cccc2n1Cc1ccccn1 [Compound 3]	recombinant human bradykinin B2 receptor (Homo sapiens)	273 nM

Let us examine a further case.
Briefly, Ki measured for COc1nc2c(OCc3c(Cl)ccc(N(C)C(=O)CNC(=O)CCc4ccc(NS(C)(=O)=O)nc4)c3Cl)cccc2n1Cc1ccccn1 [Compound 5] : 71 nM

* * *

biological target: recombinant human bradykinin B2 receptor (Homo sapiens); construct: expressed in transfected cells; host or cells: Chinese hamster ovary (CHO) cells, membrane homogenates; experiment: [3H]-BK competition radioligand binding to human cloned B2 receptor (CHO cell membranes); conditions: 0.2 nM [3H]-bradykinin, CHO membranes, 60 min 23° C.; mean ± SEM or single value; Ki from IC50 by Cheng-Prusoff; read-out: [3H]-BK Binding to Human Cloned B2 Receptor (Ki)
assayEndpoint: Ki (nM)
Express your answer in nM, writing the number without its unit.

compound	unitAnnotation	Ki
CNC(=O)[C@@H]1CC[C@H](CCC(=O)NCC(=O)N(C)c2ccc(Cl)c(COc3cccc4c3nc(OC)n4Cc3ccccn3)c2Cl)CN1	nM	514
CNC(=O)c1ccc(CCC(=O)NCC(=O)N(C)c2ccc(Cl)c(COc3cccc4c(OCc5nccn5C)cc(C)nc34)c2Cl)cc1	nM	17

Let us examine a further case.
Briefly, Ki measured for COc1nc2c(OCc3c(Cl)ccc(N(C)C(=O)CNC(=O)COc4cnc(NC(C)=O)nc4)c3Cl)cccc2n1Cc1ccccn1 : 544

* * *

EC50 for assorted compounds
Biological target: BK receptors in human ciliary muscle cells (h-CM) (Homo sapiens, UniProt P30411)
Construct: h-CM cells expressing BK receptors were seeded; endogenous in cells; host or cells: human ciliary muscle (h-CM) cells
Sequence (P30411 1-391): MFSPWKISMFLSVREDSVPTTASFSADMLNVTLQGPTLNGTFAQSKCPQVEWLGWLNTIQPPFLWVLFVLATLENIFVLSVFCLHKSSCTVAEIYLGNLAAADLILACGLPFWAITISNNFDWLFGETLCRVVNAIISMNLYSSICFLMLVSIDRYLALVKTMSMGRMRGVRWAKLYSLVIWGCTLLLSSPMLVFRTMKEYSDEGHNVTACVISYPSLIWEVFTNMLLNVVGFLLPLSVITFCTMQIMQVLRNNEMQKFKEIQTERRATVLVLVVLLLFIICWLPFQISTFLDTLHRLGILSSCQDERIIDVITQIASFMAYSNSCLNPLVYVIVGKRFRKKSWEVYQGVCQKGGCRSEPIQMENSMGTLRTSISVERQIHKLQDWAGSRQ
Assay: Functional assay measuring [Ca2+]i mobilization (FLIPR) in h-CM cells
Format: cell-based
Details: class symbols (in μM), read-out: CaM (EC50)

A selection of reference data follows.
compound	target	recordedMeasurement
COc1nc2c(OCc3c(Cl)ccc(N(C)C(=O)CNC(=O)CCc4ccc(N)nc4)c3Cl)cccc2n1Cc1ccccn1	BK receptors in human ciliary muscle cells (h-CM) (Homo sapiens, UniProt P30411)	< 0.1 µM
CNC(=O)N1CCN(CCC(=O)NCC(=O)N(C)c2ccc(Cl)c(COc3cccc4c3nc(OC)n4Cc3ccccn3)c2Cl)CC1	BK receptors in human ciliary muscle cells (h-CM) (Homo sapiens, UniProt P30411)	< 0.1 µM
CCc1nc2c(OCc3c(Cl)ccc(N(C)C(=O)CNC(=O)CCc4ccc(NC(C)=O)nc4)c3Cl)cccn2c1C(O)c1ccccn1 (stereo not shown)	BK receptors in human ciliary muscle cells (h-CM) (Homo sapiens, UniProt P30411)	0.1 to 1 µM
CNC(=O)C1CCN(CC(=O)NCC(=O)N(C)c2ccc(Cl)c(COc3cccc4c3nc(OC)n4Cc3ccccn3)c2Cl)CC1	BK receptors in human ciliary muscle cells (h-CM) (Homo sapiens, UniProt P30411)	0.1 to 1 µM
COc1nc2c(OCc3c(Cl)ccc(N(C)C(=O)CNC(=O)CCc4ccc(NS(C)(=O)=O)nc4)c3Cl)cccc2n1Cc1ccccn1	BK receptors in human ciliary muscle cells (h-CM) (Homo sapiens, UniProt P30411)	0.1 to 1 µM
COc1nc2c(OCc3c(Cl)ccc(N(C)C(=O)CNC(=O)CCc4ccc(NC(C)=O)nc4)c3Cl)cccc2n1Cc1ccccn1	BK receptors in human ciliary muscle cells (h-CM) (Homo sapiens, UniProt P30411)	< 0.1 µM
CCc1nc2c(OCc3c(Cl)ccc(N(C)C(=O)CNC(=O)CCN4CCN(C(=O)NC)CC4)c3Cl)cccn2c1C(O)c1ccccn1 (stereo not shown) [Compound 26]	BK receptors in human ciliary muscle cells (h-CM) (Homo sapiens, UniProt P30411)	0.1 to 1 µM
CNC(=O)c1ccc(CCC(=O)NCC(=O)N(C)c2ccc(Cl)c(COc3cccc4c(OCc5nccn5C)cc(C)nc34)c2Cl)cc1	BK receptors in human ciliary muscle cells (h-CM) (Homo sapiens, UniProt P30411)	< 0.1 µM

Reported BK receptors in human ciliary muscle cells (h-CM) (Homo sapiens, UniProt P30411) EC50 for item CNC(=O)C1CCN(CCC(=O)NCC(=O)N(C)c2ccc(Cl)c(COc3cccc4c3nc(OC)n4Cc3ccccn3)c2Cl)CC1 was < 0.1 µM

Reported BK receptors in human ciliary muscle cells (h-CM) (Homo sapiens, UniProt P30411) EC50 for item COc1nc2c(OCc3c(Cl)ccc(N(C)C(=O)CNC(=O)[C@@H]4CCN(C(=O)OC(C)(C)C)C4)c3Cl)cccc2n1Cc1ccccn1 was < 0.1 µM

Reported BK receptors in human ciliary muscle cells (h-CM) (Homo sapiens, UniProt P30411) EC50 for item COc1nc2c(OCc3c(Cl)ccc(N(C)C(=O)CNC(=O)CN4CCC(NC(C)=O)C4)c3Cl)cccc2n1Cc1ccccn1 (stereo not shown) was < 0.1 µM

Reported BK receptors in human ciliary muscle cells (h-CM) (Homo sapiens, UniProt P30411) EC50 for item CNC(=O)c1ccc(CCC(=O)NCC(=O)N(C)c2ccc(Cl)c(COc3cccc4c(OCc5ccccc5F)cc(C)nc34)c2Cl)cn1 was 0.1 to 1 µM

Reported BK receptors in human ciliary muscle cells (h-CM) (Homo sapiens, UniProt P30411) EC50 for item CC(=O)Nc1ccc(CCC(=O)NCC(=O)N(C)c2ccc(Cl)c(COc3cccc4c(OCc5ccccn5)cc(C)nc34)c2Cl)cc1 was 0.1 to 1 µM
